Ref: patent US20060069132A1

- Tested on: johnsongrass
- RUN DESCRIPTION: Test C pre-/postemergence herbicide test
- Format: in vivo, Sorghum halepense
- CONDITION LABEL: 500 g ai/ha; scale 0 to 100 (0 no effect, 100 complete control); visual, 12 to 14 days; preemergence
Plant response rating, Johnsongrass values, listed per item
READOUT: Plant response rating, Johnsongrass

{"MOLECULE": "CCNC(=O)c1ccc(F)c(N(C(C)=O)C(=O)c2cc(C(C)(C)C)nn2CC)c1", "RECORDED RESULT": 100}
{"MOLECULE": "CCNC(=O)c1cccc(NC(=O)c2nn(C(C)(C)CC)nc2CC)c1", "RECORDED RESULT": 100}
{"MOLECULE": "CCn1nc(C(C)(C)C)cc1C(=O)Nc1cc(C(=O)N2CCCC2)ccc1F", "RECORDED RESULT": 100}
{"MOLECULE": "CCC1=NN(C(C)(C)C)CC1C(=O)Nc1cc(C(=O)N2CC=CC2)ccc1F (racemic)", "RECORDED RESULT": 90}
{"MOLECULE": "CCc1nn(C(C)(C)C)nc1C(=O)Nc1cccc(C(=O)NC2CC2)c1", "RECORDED RESULT": 100}
{"MOLECULE": "CCn1nc(C(C)(C)C)cc1C(=O)Nc1cncc(C(=O)N(C)C)n1", "RECORDED RESULT": 95}

----------
Crabgrass, Large plant response rating values, listed per item
- Tested on: large crabgrass
- RUN DESCRIPTION: Test B pre-/postemergence herbicide test
- Type: in vivo, Digitaria sanguinalis
- CONDITION LABEL: postemergence, 125 g ai/ha; scale 0 to 100
- Procedure: […] At the same time, plants selected from these crop and weed species and also blackgrass (Alopecurus myosuroides Huds.), wheat (Triticum aestivum L.) and wild oat (Avena fatua L.) were treated with postemergence applications of test chemicals formulated in the same manner. […] Treated plants and controls were maintained in a greenhouse for 13 to 15 days, after which time all species were compared to controls and visually evaluated. […]

{"SMILES STRUCTURE": "Cc1nn(C(C)(C)C)nc1C(=O)Nc1cncc(C(=O)N(C)C)c1", "Crabgrass, Large plant response rating": 10}
{"SMILES STRUCTURE": "CCc1nn(C(C)(C)C)nc1C(=O)Nc1cccc(C(=O)N2CCCCC2)c1", "Crabgrass, Large plant response rating": 30}
{"SMILES STRUCTURE": "C=CCN(C(C)=O)C(=O)c1ccc(F)c(NC(=O)c2cc(C(C)(C)C)nn2CC)c1", "Crabgrass, Large plant response rating": 10}
{"SMILES STRUCTURE": "CCOC(=O)c1ccnc(NC(=O)c2nn(C(C)(C)C)nc2C)c1", "Crabgrass, Large plant response rating": 0}
{"SMILES STRUCTURE": "C=CCN(CC=C)C(=O)c1ccc(F)c(NC(=O)c2cc(C(C)(C)C)nn2CC)c1", "Crabgrass, Large plant response rating": 20}
{"SMILES STRUCTURE": "C#CCOc1cccc(NC(=O)c2cc(C(C)(C)C)nn2CC)c1", "Crabgrass, Large plant response rating": 0}

----------
- System: barnyardgrass
- RUN DESCRIPTION: Test C flooded paddy test
- Assay type: in vivo, Echinochloa crus-galli
- CONDITION LABEL: 125 g ai/ha, scale 0 to 100 (0 no effect, 100 complete control)
Barnyardgrass plant response rating values, listed per item

{"SMILES STRUCTURE": "Cc1nn(C(C)(C)C)nc1C(=O)Nc1cccc(C(=O)N(C)C)c1", "Barnyardgrass plant response rating": 85}
{"SMILES STRUCTURE": "CCn1nc(C(C)(C)C)cc1C(=O)Nc1cc(C(=O)N2CCCC2)ccc1F", "Barnyardgrass plant response rating": 75}
{"SMILES STRUCTURE": "Cc1nn(C(C)(C)C)cc1C(=O)Nc1cc(C(=O)N(C)C)ccc1F", "Barnyardgrass plant response rating": 0}
{"SMILES STRUCTURE": "CCc1nn(C(C)(C)CC)nc1C(=O)Nc1cccc(C(=O)N2CC=CC2)c1", "Barnyardgrass plant response rating": 45}
{"SMILES STRUCTURE": "CCOC(=O)c1ccc(F)c(NC(=O)c2cc(C3(C)CC3)nn2CC)c1", "Barnyardgrass plant response rating": 25}
{"SMILES STRUCTURE": "C#CCNC(=O)c1ccc(F)c(NC(=O)c2cc(C3(C)CC3)nn2CC)c1", "Barnyardgrass plant response rating": 0}
{"SMILES STRUCTURE": "CCc1nc(C(C)(C)C)sc1C(=O)Nc1cc(C(=O)N(C)CC)ccc1F", "Barnyardgrass plant response rating": 45}

----------
- Tested on: windgrass
- RUN DESCRIPTION: Test C postemergence herbicide test
- Type: in vivo, Apera spica-venti
- CONDITION LABEL: postemergence, 125 g ai/ha; scale 0 to 100
- Description: […]

{"SMILES STRUCTURE": "C=CCN(CC=C)C(=O)c1ccc(F)c(NC(=O)c2cc(C(C)(C)C)nn2CC)c1", "Plant response rating, Windgrass": 40}
{"SMILES STRUCTURE": "C#CCOc1cccc(NC(=O)c2cc(C(C)(C)C)nn2CC)c1", "Plant response rating, Windgrass": 55}
{"SMILES STRUCTURE": "Cc1nn(C(C)(C)C)nc1C(=O)Nc1cccc(C(=O)N(C)C)c1", "Plant response rating, Windgrass": 65}
{"SMILES STRUCTURE": "CCOC(=O)c1ccc(F)c(NC(=O)c2cc(C3(C)CC3)nn2CC)c1", "Plant response rating, Windgrass": 50}

----------
Plant response rating, Corn values, listed per item
- System: corn
- RUN DESCRIPTION: Test C pre-/postemergence herbicide test
- Assay type: in vivo, Zea mays
- CONDITION LABEL: 250 g ai/ha; scale 0 to 100 (0 no effect, 100 complete control); visual, 12 to 14 days; preemergence

{"SMILES STRUCTURE": "CCn1nc(C(C)(C)C)cc1C(=O)Nc1cccc(C(=O)NC2CC2)n1", "TARGET OF ASSAY": "corn", "Plant response rating, Corn": 10}
{"SMILES STRUCTURE": "CCn1nc(C(C)(C)C)cc1C(=O)Nc1cccc(C#N)c1", "TARGET OF ASSAY": "corn", "Plant response rating, Corn": 15}
{"SMILES STRUCTURE": "CCn1nc(C(C)(C)C)cc1C(=O)Nc1cc(C#N)ccc1F", "TARGET OF ASSAY": "corn", "Plant response rating, Corn": 0}
{"SMILES STRUCTURE": "CCNC(=O)c1cc(C)nc(NC(=O)c2cc(C(C)(C)C)nn2CC)c1", "TARGET OF ASSAY": "corn", "Plant response rating, Corn": 10}
{"SMILES STRUCTURE": "CCn1nc(C(C)(C)C)cc1C(=O)Nc1cccc(C(C)=NO)c1", "TARGET OF ASSAY": "corn", "Plant response rating, Corn": 50}

----------
- Tested on: corn
- RUN DESCRIPTION: Test B pre-/postemergence herbicide test
- Format: in vivo, Zea mays
- CONDITION LABEL: postemergence, 500 g ai/ha; visual rating, scale 0 (no effect) to 100 (complete control)
Corn plant response rating values, listed per item

{"SMILES STRUCTURE": "CCN(C)C(=O)c1cccc(NC(=O)c2sc(C(C)(C)C)nc2C)c1", "TARGET OF ASSAY": "corn", "Corn plant response rating": 40}
{"SMILES STRUCTURE": "CCn1nc(C(C)(C)C)cc1C(=O)Nc1cccc(C#N)c1", "TARGET OF ASSAY": "corn", "Corn plant response rating": 20}
{"SMILES STRUCTURE": "CCc1cn(C(C)(C)C)nc1C(=O)Nc1cc(C(=O)N(C)CC)ccn1", "TARGET OF ASSAY": "corn", "Corn plant response rating": 40}
{"SMILES STRUCTURE": "CCc1nc(C(C)(C)C)sc1C(=O)Nc1cccc(C(=O)NCC2CC2)n1", "TARGET OF ASSAY": "corn", "Corn plant response rating": 10}
{"SMILES STRUCTURE": "CCn1nc(C(C)(C)C)cc1C(=O)Nc1cccc(C(=O)NC2CC2)n1", "TARGET OF ASSAY": "corn", "Corn plant response rating": 30}
{"SMILES STRUCTURE": "C=CCN(C)C(=O)c1cccc(NC(=O)c2cc(C(C)(C)C)nn2CC)n1", "TARGET OF ASSAY": "corn", "Corn plant response rating": 0}
{"SMILES STRUCTURE": "C=CCN(C)C(=O)c1ccnc(NC(=O)c2cc(C(C)(C)C)nn2CC)c1", "TARGET OF ASSAY": "corn", "Corn plant response rating": 0}
{"SMILES STRUCTURE": "CCn1nc(C(C)(C)C)cc1C(=O)Nc1cccc(S(=O)(=O)C(F)(F)F)c1", "TARGET OF ASSAY": "corn", "Corn plant response rating": 30}
